# key: entry, value: Activity (relative rate of hydrolysis)
Target: HvExoI W434F mutant (Hordeum vulgare, UniProt Q9XEI3, W459F)
Sequence (Q9XEI3 26-630 W459F): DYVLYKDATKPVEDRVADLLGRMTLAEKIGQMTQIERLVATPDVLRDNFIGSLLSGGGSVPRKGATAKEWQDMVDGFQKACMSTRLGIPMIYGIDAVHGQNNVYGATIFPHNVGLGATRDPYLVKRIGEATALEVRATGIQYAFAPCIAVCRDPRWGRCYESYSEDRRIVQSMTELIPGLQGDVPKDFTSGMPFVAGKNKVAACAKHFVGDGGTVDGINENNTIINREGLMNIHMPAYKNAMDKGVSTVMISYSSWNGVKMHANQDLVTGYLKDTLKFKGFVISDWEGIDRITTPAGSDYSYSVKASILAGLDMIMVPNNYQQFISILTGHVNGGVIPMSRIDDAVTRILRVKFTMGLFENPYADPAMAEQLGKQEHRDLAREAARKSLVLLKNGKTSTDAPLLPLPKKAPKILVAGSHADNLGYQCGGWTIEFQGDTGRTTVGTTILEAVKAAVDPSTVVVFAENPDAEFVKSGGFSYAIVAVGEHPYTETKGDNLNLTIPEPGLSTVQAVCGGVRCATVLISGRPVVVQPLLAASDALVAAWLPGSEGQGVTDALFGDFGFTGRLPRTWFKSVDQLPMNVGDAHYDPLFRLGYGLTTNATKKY
Experiment: Relative rates of hydrolysis of poly-, oligosaccharides and aryl-glycosides
Format: biochemical
Details: substance is the substrate, nd = activity not detected

[[record]]
compound = "O=[N+]([O-])c1ccc(O[C@@H]2O[C@H](CO)[C@@H](O)[C@H](O)[C@H]2O)cc1 [4NP-Glc, 4-nitrophenyl β-D-glucopyranoside]"
reported = "5.0 ± 0.01 μmole/min per mg protein"


// below: Activity (relative rate of hydrolysis) requested for another compound
Ask: Returns the measured Activity (relative rate of hydrolysis) for the input compound. Input: OC[C@H]1O[C@@H](O[C@@H]2[C@@H](O)[C@H](O[C@@H]3[C@@H](O)[C@H](O[C@@H]4[C@@H](O)[C@H](O[C@@H]5[C@@H](O)[C@H](O)O[C@H](CO)[C@H]5O)O[C@H](CO)[C@H]4O)O[C@H](CO)[C@H]3O)O[C@H](CO)[C@H]2O)[C@H](O)[C@@H](O)[C@@H]1O
Result: 14.6 ± 0.4 μmole/min per mg protein

====

# key: entry, value: Activity (relative rate of hydrolysis)
Biological target: HvExoI W434F mutant (Hordeum vulgare, UniProt Q9XEI3, W459F)
Assay: Relative rates of hydrolysis of poly-, oligosaccharides and aryl-glycosides
Type: biochemical
Conditions: substance is the substrate, nd = activity not detected
Record the value in μmole/min per mg protein, omitting the unit from your answer.

Worked cases, Activity (relative rate of hydrolysis) given:
[[record]]
compound = "OC[C@H]1O[C@@H](O[C@H]2[C@H](O)[C@@H](CO)OC(O)[C@@H]2O)[C@H](O)[C@@H](O)[C@@H]1O (stereo partly drawn)"
tested_target = "HvExoI W434F mutant (Hordeum vulgare, UniProt Q9XEI3, W459F)"
reported = 14.9

[[record]]
compound = "OC[C@H]1O[C@@H](O[C@H]2[C@H](O)[C@@H](O)[C@H](O[C@H]3[C@H](O)[C@@H](O)C(O)O[C@@H]3CO)O[C@@H]2CO)[C@H](O)[C@@H](O)[C@@H]1O (stereo partly drawn)"
tested_target = "HvExoI W434F mutant (Hordeum vulgare, UniProt Q9XEI3, W459F)"
reported = 1.2


// below: Activity (relative rate of hydrolysis) requested for another compound
Ask: So what Activity (relative rate of hydrolysis) did OC[C@H]1O[C@@H](O[C@H]2[C@H](O)[C@@H](O)[C@H](O[C@H]3[C@H](O)[C@@H](O)[C@H](O[C@H]4[C@H](O)[C@@H](O)C(O)O[C@@H]4CO)O[C@@H]3CO)O[C@@H]2CO)[C@H](O)[C@@H](O)[C@@H]1O (stereo partly drawn) get with HvExoI W434F mutant (Hordeum vulgare, UniProt Q9XEI3, W459F)?
Result: 1.9
